system: NCI-H226; experiment: NCI tumour cell line growth inhibition, 48 h
The source made the active and inactive calls. Cut-off read from the data, not from the text of the source: active = GI50 up to about 1.1 µM and inactive = higher.
Outcome codes: true for active, false for inactive

                                   molecule       tgt  class
0  CCCC(=O)OC1CC(n2cc(F)c(=O)[nH]c2=O)OC1COP(=O)(OCC(Cl)(Cl)Cl)OCC(Cl)(Cl)Cl (stereo not drawn)  NCI-H226  false
1  c1cc2c(cc1C1=NCCN1)c1cc(C3=NCCN3)ccc1n2CC1CCCCC1  NCI-H226  false
2  COc1cccc(C2C(C(=O)Nc3cc(=O)n(C)c(=O)n3C)=C(C)NC(C)=C2C(=O)Nc2cc(=O)n(C)c(=O)n2C)c1O  NCI-H226  false
3  C#CC1(O)C(COP(=O)(O)OCC2OC(n3ccc(NCCCCCCCCCCCCCCCCCC)nc3=O)C(O)C2O)OC(n2ccc(N)nc2=O)C1O (stereo not drawn)  NCI-H226   true
4          COC(=O)C1=C(O)C(O)=C(C(=O)OC)CC1  NCI-H226  false
5  CC1=CC[C@@]2(CO)[C@@H]([C@@H]1C)[C@H]1CC[C@@H]3[C@@]4(C)CC[C@H](O)C(C)(C)[C@@H]4CC[C@@]3(C)[C@]1(C)C[C@@H]2O  NCI-H226  false
6  COC(=O)C1=C(C)C(=O)[C@H]2C(C(=O)OC)CCCC[C@@H]12 (stereo partly drawn)  NCI-H226  false
7  Cc1ccc(C2=CC(=O)c3ccccc3C2=O)n1-c1ccccc1  NCI-H226  false

* * *

tested on: SK-MEL-2; test: NCI tumour cell line growth inhibition, 48 h
The source made the active and inactive calls. Rule as the data show it: active = GI50 up to about 1.1 µM and inactive = higher.
measuredParameter: GI50

In [3]: df
Out[3]:
                                    compound       tgt  measuredparameter       endpointresult
 0  CC(C)(C)NNC(=O)/C(=C/c1ccc([N+](=O)[O-])cc1)NC(=O)c1ccccc1  SK-MEL-2               GI50  > 100 µM (inactive)
 1       O=c1[nH]cnc2c1ncn2[C@@H]1C[C@@H]1CO  SK-MEL-2               GI50  > 100 µM (inactive)
 2  NC(Cc1ccccc1)C(=O)NC(Cc1ccccc1)NC(=O)C(Cc1c[nH]c2ccccc12)C(=O)O (configuration not stated)  SK-MEL-2               GI50   9.35 µM (inactive)
 3  Cc1ccc(N2Cc3c(ccc4ccccc34)OP2(=S)N2CCCC2)cc1 (configuration not stated)  SK-MEL-2               GI50  > 100 µM (inactive)
 4  O=C(O)c1cc(Cl)cc(Cc2cc(Cl)cc(C(=O)O)c2O)c1O  SK-MEL-2               GI50  > 100 µM (inactive)
 5  Cc1cc2c(c(C(=O)NCCC(=O)N[C@@H](C)C(=O)OCc3ccccc3)c1)Oc1c(cc(C)cc1C(=O)NCCC(=O)N[C@@H](C)C(=O)OCc1ccccc1)S2  SK-MEL-2               GI50  > 100 µM (inactive)
 6     O=c1oc2ccccc2cc1-c1cn2c(n1)sc1ccccc12  SK-MEL-2               GI50  > 100 µM (inactive)
 7           CN(C)c1ccc2c(c1)oc(=O)c1ccccc12  SK-MEL-2               GI50   6.24 µM (inactive)
 8  CC1(Cl)CC2C(CC1Sc1nnnn1-c1ccccc1)C2(C)C (configuration not stated)  SK-MEL-2               GI50  > 100 µM (inactive)
 9  N#CC1CC2(C(=O)C1=O)c1ccccc1-c1ccccc12 (configuration not stated)  SK-MEL-2               GI50  > 100 µM (inactive)
10  CC(C)(C)OC(=O)NCCCCC(N)C(N)=O (configuration not stated)  SK-MEL-2               GI50  > 100 µM (inactive)
11  O=[N+]([O-])c1ccc(C2CC(c3ccccc3Cl)=Nc3ccccc3[S+]2[O-])cc1 (configuration not stated)  SK-MEL-2               GI50     15 µM (inactive)
12  CCOC(=O)C(C)c1nc2cc(F)c(F)cc2[nH]c1=O (configuration not stated)  SK-MEL-2               GI50  > 100 µM (inactive)
13  C#C/C=C\CCCCCCCCCCCCCC/C=C\CCCCC#CC(O)C#CCCCC/C=C\CCCCCC/C=C/C(O)C#C (configuration not stated)  SK-MEL-2               GI50   12.9 µM (inactive)
14  O=C(CSc1nc2ccccc2s1)c1sc2sc3ccccc3[n+]2c1[O-]  SK-MEL-2               GI50  > 100 µM (inactive)
15  COc1ccc(C2OC(c3ccncc3)=NN2C)cc1OC (configuration not stated)  SK-MEL-2               GI50  > 100 µM (inactive)
16  O=[N+]([O-])c1nccn1CCCNCCCn1ccnc1[N+](=O)[O-]  SK-MEL-2               GI50  > 100 µM (inactive)
17  Cc1ccc2c(c1)C1(C)OC(C=CC1=O)O2 (configuration not stated)  SK-MEL-2               GI50   1.77 µM (inactive)
18  COC(=O)n1c(=O)n(-c2ccccc2)c(=O)n1C(=O)OC  SK-MEL-2               GI50  > 100 µM (inactive)
19  CC(=O)N(CCCCNC(=O)C(F)(F)F)CCCNC(=O)C(F)(F)F  SK-MEL-2               GI50  > 100 µM (inactive)
20        C[Si](C)(c1ccccc1)C1CC(=O)CC(=O)C1  SK-MEL-2               GI50  > 100 µM (inactive)
21              ClCCc1ccccc1CC1=NCCc2ccccc21  SK-MEL-2               GI50   18.5 µM (inactive)

* * *

tested on: U-251; experiment: NCI tumour cell line growth inhibition, 48 h
Active and inactive are the calls of the source. Cut-off read from the data, not from the text of the source: active = GI50 up to about 1.1 µM and inactive = higher.
measuredParameter: GI50

                                   compound       endpointresult
0      CCOC(=O)/C(C#N)=C\C=C1/C=CN=C2NCCN21  > 100 µM (inactive)
1    O=C(O)/C(Cl)=C(\Cl)Nc1cccc(C(F)(F)F)c1  > 100 µM (inactive)
2  CC(=O)N1CN2C(=O)CCC2c2ccccc21 (stereo not given)  > 100 µM (inactive)
3  [N-]=[N+]=NC(c1cn(C2CC(O)C(CO)O2)c(=O)[nH]c1=O)C(Br)Br (stereo not given)  > 100 µM (inactive)
4       CCOC(=O)C(=C=Cc1cccs1)C(=O)c1ccccc1   16.9 µM (inactive)

* * *

test system: TK-10; assay: NCI tumour cell line growth inhibition, 48 h
Active and inactive are the calls of the source. Rule as the data show it: active = GI50 up to about 1.1 µM and inactive = higher.
measuredParameter: GI50

sampleSmiles	endpointResult
C=C1C2=C(CCCC2)C(=O)OC12CCCCC2	> 100 µM (inactive)
N#CC(C#N)=C/C=C/c1ccccc1[N+](=O)[O-]	> 10 µM (inactive)
C[C@@H]1C[C@H](O)[C@]2(O)O[C@@H]3C[C@@]4(C=O)[C@@H](CC=C5[C@@H]4CC[C@]4(C)[C@@H](C6=CC(=O)OC6)CC[C@]54O)C[C@H]3O[C@@H]2O1	< 0.01 µM (active)
COc1cc(C(=O)N(Cc2cccnc2)C(=S)N(Cc2cccnc2)C(=O)c2cc(OC)c(OC)c(OC)c2)cc(OC)c1OC	89.1 µM (inactive)

* * *

Below are molecules with their GI50 as measured on HCT-15.
measuredParameter: GI50 (µM)

molecule	qualifierOperator	endpointResult
ClCCc1ccccc1CC1=NCCc2ccccc21	=	33
C/C(=N\NC(=O)c1ccncc1)c1cccc(F)c1	>	10
NS(=O)(=O)c1nnc(NC(=O)c2ccccc2)s1	>	100
O=c1cc(CN2CCCCC2)nc2ccc3c(O)cc(CN4CCCCC4)nc3n12	>	100
O=S(=O)(c1ccc(I)cc1)N(c1ccccc1)S(=O)(=O)C(F)(F)C(F)(F)C(F)(F)C(F)(F)F	=	41.2
CC1CC[C@]2(C(=O)O)CCC3(C)C(=C2[C@H]1C)C=CC1[C@@]2(C)CC[C@H](O)C(C)(C)C2CC[C@]13C (stereo partly drawn)	=	27.4
COc1cccc(CCn2c(N)c(-c3cc(Cl)cc(Cl)c3)c3ccc([N+](=O)[O-])cc3c2=O)c1	=	3.19
CSCC[C@@H](NC(=O)[C@H](CC(C)C)NC(=O)C(Cc1cnc[nH]1)NC(=O)CNC(=O)[C@@H](NC(=O)[C@H](C)NC(=O)[C@H](Cc1cn(C=O)c2ccccc12)NC(=O)[C@H](CCC(N)=O)NC(=O)[C@@H](N)CC(N)=O)C(C)C)C(N)=O (stereo partly drawn)	>	100
